- testedSystem: purified 6× His-tagged SARS-CoV-2 spike protein (ELISA coat, Example 12) (SARS-CoV-2, UniProt P0DTC2 14-1213)
reportedMetric: EC50

>>> datavalue("ab40 (scFv, V domains shown) VH: EVQLVESGAEVKKPGESLKISCKGSGYTFTRYWIGWVRQMPGKGLEWMGIIYPGDSETRYSPSFQGHVTISADKSISTAYLQWNSLKASDTAMYYCARLPQYCRSGVCQRWFDPWGQGTLVTVSS VL: EIVLTQSPSSVSASVGDRVTITCRASQGISSWLAWYQQKPGKAPKLLIYAASSLQSGVPSRFSGSGSGTDFTLTISSLQPEDFATYYCQQGNQVPYTFGQGTNLEIK")
"40 nM"
